Target Or System: Dimeric Mouse Ang-2FD conjugated to human IgG1 (mouse (Mus musculus))
Sequence (chain, as listed by the source limits assumed): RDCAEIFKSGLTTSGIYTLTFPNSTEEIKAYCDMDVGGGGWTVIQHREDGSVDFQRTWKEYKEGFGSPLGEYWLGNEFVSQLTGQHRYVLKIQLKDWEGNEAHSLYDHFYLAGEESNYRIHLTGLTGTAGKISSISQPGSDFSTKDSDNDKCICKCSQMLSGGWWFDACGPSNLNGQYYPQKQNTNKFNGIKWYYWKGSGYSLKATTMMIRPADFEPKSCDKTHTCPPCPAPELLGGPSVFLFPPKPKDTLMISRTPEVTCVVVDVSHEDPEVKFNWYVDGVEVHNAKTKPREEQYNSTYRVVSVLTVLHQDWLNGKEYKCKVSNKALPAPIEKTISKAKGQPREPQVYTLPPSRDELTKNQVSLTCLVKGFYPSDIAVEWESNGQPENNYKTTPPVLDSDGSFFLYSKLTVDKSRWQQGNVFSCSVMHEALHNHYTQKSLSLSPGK
Assay Info: SPR, antibody captured, room temperature
Measured Attribute: T1/2
Number plus unit, in that order.

Binder	T1/2
H1M732N (antibody, V domains shown) VH: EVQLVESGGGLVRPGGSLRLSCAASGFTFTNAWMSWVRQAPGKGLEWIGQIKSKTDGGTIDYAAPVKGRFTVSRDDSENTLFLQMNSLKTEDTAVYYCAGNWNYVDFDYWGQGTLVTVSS VL: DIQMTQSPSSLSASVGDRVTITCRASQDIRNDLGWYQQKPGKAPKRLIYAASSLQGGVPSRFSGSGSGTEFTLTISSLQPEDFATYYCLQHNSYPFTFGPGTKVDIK	21.4 min
H2M742N (antibody, V domains shown) VH: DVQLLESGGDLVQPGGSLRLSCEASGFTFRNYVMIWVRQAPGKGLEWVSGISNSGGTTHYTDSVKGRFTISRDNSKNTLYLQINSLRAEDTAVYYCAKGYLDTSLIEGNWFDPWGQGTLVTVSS VL: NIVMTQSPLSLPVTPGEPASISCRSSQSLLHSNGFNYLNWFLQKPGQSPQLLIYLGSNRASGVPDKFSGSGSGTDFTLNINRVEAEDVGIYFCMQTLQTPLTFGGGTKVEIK	30.8 min

# evaluate next
Supply recorded T1/2 for H1M728N (antibody, V domains shown) VH: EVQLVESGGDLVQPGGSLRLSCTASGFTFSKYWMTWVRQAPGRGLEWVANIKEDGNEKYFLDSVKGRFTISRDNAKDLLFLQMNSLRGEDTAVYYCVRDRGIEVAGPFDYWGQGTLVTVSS VL: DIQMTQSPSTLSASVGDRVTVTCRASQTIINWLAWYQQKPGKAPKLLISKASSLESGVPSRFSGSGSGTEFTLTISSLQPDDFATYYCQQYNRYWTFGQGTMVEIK here.
9.9 min
